Molecular target: PDE9A (Homo sapiens, UniProt O76083)
Construct: the full-length open reading frames of PDE1C
Sequence (O76083 whole entry): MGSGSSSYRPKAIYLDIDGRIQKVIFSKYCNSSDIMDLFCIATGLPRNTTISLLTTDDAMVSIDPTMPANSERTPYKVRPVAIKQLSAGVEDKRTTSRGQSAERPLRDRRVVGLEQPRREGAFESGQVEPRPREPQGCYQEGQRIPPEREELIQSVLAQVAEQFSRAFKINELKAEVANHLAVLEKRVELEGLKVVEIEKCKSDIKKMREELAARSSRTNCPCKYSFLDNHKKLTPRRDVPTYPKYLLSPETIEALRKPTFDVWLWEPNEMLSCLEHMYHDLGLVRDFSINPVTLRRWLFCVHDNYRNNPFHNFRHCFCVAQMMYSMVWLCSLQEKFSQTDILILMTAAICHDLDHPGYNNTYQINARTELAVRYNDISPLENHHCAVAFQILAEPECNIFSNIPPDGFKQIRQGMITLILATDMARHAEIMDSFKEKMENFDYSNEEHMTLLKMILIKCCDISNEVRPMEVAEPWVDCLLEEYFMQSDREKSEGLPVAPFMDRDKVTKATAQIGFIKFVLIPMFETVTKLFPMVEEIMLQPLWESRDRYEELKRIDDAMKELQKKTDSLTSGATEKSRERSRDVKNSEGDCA
Assay: Recombinant PDE activity, scintillation proximity assay: PDE9A
Details: substrate cGMP
readoutType: IC50

[
  {
    "molecule": "[O-][S+]1CCc2nc(N3CCC(c4ncc(Cl)cn4)CC3)nc(NC3(CO)CCC3)c21 (stereo not shown)",
    "readoutValue": "> 100 µM"
  }
]
